molecular target: T1, HLA-B*07:02 (human); assay: UV-exchange b2m ELISA; exchange-yield grade
T1 construct: also called peptide-receptive MHC molecules
Catalogue of binders with associated peptide exchange yield

// worked examples, peptide exchange yield included
BINDER | peptide exchange yield
LPRGPLASLL | 50 to 75%
SPAEPSVYATL | > 75%
LPWDTSTTLF | 50 to 75%

In the following, a different binder is considered.
Query: Name the recorded peptide exchange yield of the binder listed here: "AAASPLLLL"
Response: 20 to 50%
